Molecular target: Bromodomain-containing protein 4 (Homo sapiens, UniProt O60885)
Test: Inhibition of His/thioredoxin-tagged human recombinant BRD4 bromodomain-1 (43 to 166 residues) expressed in Escherichia coli BL21 Star (DE3) pre-incubated for 30 mins followed by biotinylated histone peptide H4 addition measured after 30 mins by AlphaScreen assay
pIC50: −log10 of the molar value.
# reported pIC50; entries follow
readout-type: pIC50

1. CN1CCc2c(sc3nc(Cc4ccc(-c5ccccc5)cc4)[nH]c(=O)c23)C1 :: < 5.00
2. COc1cccc(-c2nc3sc4c(c3c(=O)[nH]2)CCCC4)c1 :: < 5.00
3. CC1CCc2c(sc3nc(-c4ccc(O)cc4)[nH]c(=O)c23)C1 (stereo unspecified) :: 5.37
4. O=c1[nH]c(-c2ccccc2)nc2sc3c(c12)CCN(Cc1ccccc1)C3 :: < 5.00
5. CC1CCc2c(sc3nc(-c4ccc(C(F)(F)F)cc4)[nH]c(=O)c23)C1 (stereo unspecified) :: < 5.00
6. CC1CCc2c(sc3nc(-c4cc(F)c(F)c(F)c4)[nH]c(=O)c23)C1 (stereo unspecified) :: < 5.00
7. CC1CCc2c(sc3nc(-c4ccccc4)[nH]c(=O)c23)C1 (stereo unspecified) :: < 5.00
8. COc1ccccc1-c1nc2sc3c(c2c(=O)[nH]1)CCN(C)C3 :: 5.61
9. CN1CCc2c(sc3nc(-c4cccc(O)c4)[nH]c(=O)c23)C1 :: < 5.00
10. Cc1cc(-c2nc3sc4c(c3c(=O)[nH]2)CCCCC4)cc(C)c1O :: 6.31
11. CCCc1cc2c(=O)[nH]c(-c3ccc(O)cc3)nc2s1 :: 5.07

---

# reported IC50; entries follow
Tested on: MDA-MB-231
Assay: Antiproliferative activity against human MDA-MB-231 cells after 24 hrs by MTT assay
Format: functional, cell-based
Settings: MDA-MB-231, 24 h
readout-type: IC50

1. CC1CCc2c(sc3nc(-c4cc(F)c(F)c(F)c4)[nH]c(=O)c23)C1 (stereo unspecified) :: > 30 µM
2. O=c1[nH]c(-c2ccc(O)cc2)nc2sc3c(c12)CCN(Cc1ccccc1)C3 :: > 30 µM
3. CN1CCc2c(sc3nc(Cc4ccc(-c5ccccc5)cc4)[nH]c(=O)c23)C1 :: > 30 µM
4. COc1ccccc1-c1nc2sc3c(c2c(=O)[nH]1)CCC3 :: 5.34 µM
5. O=c1[nH]c(-c2ccc(O)cc2)nc2sc3c(c12)CCCC3 :: > 30 µM
6. O=c1[nH]c(-c2ccc(Br)cc2)nc2sc3c(c12)CCCC3 :: > 30 µM

---

System: MDA-MB-231
Assay: Antiproliferative activity against human MDA-MB-231 cells after 24 hrs by MTT assay
Assay type: functional, cell-based
Settings: MDA-MB-231, 24 h
# reported IC50; entries follow
readout-type: IC50 (µM)

1) Cc1cc(-c2nc3sc4c(c3c(=O)[nH]2)CCCCC4)cc(C)c1O :: 8.31
2) O=c1[nH]c(Cc2ccccc2)nc2sc3c(c12)CCCCC3 :: 5.8
3) CN1CCc2c(sc3nc(-c4ccc(O)cc4)[nH]c(=O)c23)C1 :: 8.29
4) CN1CCc2c(sc3nc(-c4ccc(C(F)(F)F)cc4)[nH]c(=O)c23)C1 :: 22.2

---

Tested on: MDA-MB-231
Assay: Antiproliferative activity against human MDA-MB-231 cells after 24 hrs by MTT assay
Assay type: functional, cell-based
Settings: MDA-MB-231, 24 h
readout-type: IC50

1) Cc1cc(-c2nc3sc4c(c3c(=O)[nH]2)CCCC4)cc(C)c1O :: 27.8 µM
2) CC1CCc2c(sc3nc(Cc4ccccc4)[nH]c(=O)c23)C1 (stereo unspecified) :: > 30 µM
3) CC1CCc2c(sc3nc(-c4ccccc4)[nH]c(=O)c23)C1 (stereo unspecified) :: > 30 µM
4) CN1CCc2c(sc3nc(-c4cccc(O)c4)[nH]c(=O)c23)C1 :: > 30 µM
5) CCCc1cc2c(=O)[nH]c(-c3cccc(Br)c3)nc2s1 :: > 30 µM
6) CC1CCc2c(sc3nc(-c4ccc(O)cc4)[nH]c(=O)c23)C1 (stereo unspecified) :: 22.9 µM
7) O=c1[nH]c(-c2ccccc2)nc2sc3c(c12)CCN(Cc1ccccc1)C3 :: > 30 µM
8) O=c1[nH]c(Cc2ccccc2)nc2sc3c(c12)CCC3 :: > 30 µM
9) O=c1[nH]c(-c2ccc(Br)cc2)nc2sc3c(c12)CCCCC3 :: > 30 µM
10) O=c1[nH]c(-c2ccc(F)cc2F)nc2sc3c(c12)CCCC3 :: > 30 µM
11) Cc1cc(-c2nc3sc4c(c3c(=O)[nH]2)CCN(C)C4)cc(C)c1O :: 3.27 µM

---

# reported pIC50; entries follow
Test system: MDA-MB-231
Experiment: Antiproliferative activity against human MDA-MB-231 cells after 24 hrs by MTT assay
Assay type: functional, cell-based
Conditions: MDA-MB-231, 24 h
pIC50: −log10 of the molar value.
readout-type: pIC50

1. CC1CCc2c(sc3nc(-c4ccc(Br)cc4)[nH]c(=O)c23)C1 (configuration not stated) :: < 4.52
2. COc1ccccc1-c1nc2sc3c(c2c(=O)[nH]1)CCN(C)C3 :: 5.09
3. Cc1cc(-c2nc3sc4c(c3c(=O)[nH]2)CCN(Cc2ccccc2)C4)cc(C)c1O :: < 4.52
4. COc1cccc(-c2nc3sc4c(c3c(=O)[nH]2)CCCC4)c1 :: < 4.52
5. CC1CCc2c(sc3nc(-c4ccc(C(F)(F)F)cc4)[nH]c(=O)c23)C1 (configuration not stated) :: < 4.52
6. CC1CCc2c(sc3nc(-c4cccc(Br)c4)[nH]c(=O)c23)C1 (configuration not stated) :: 4.79
7. CCCc1cc2c(=O)[nH]c(Cc3ccc(-c4ccccc4)cc3)nc2s1 :: < 4.52

---

Target: Bromodomain-containing protein 4 (Homo sapiens)
Assay: Inhibition of His/thioredoxin-tagged human recombinant BRD4 bromodomain-1 (43 to 166 residues) expressed in Escherichia coli BL21 Star (DE3) pre-incubated for 30 mins followed by biotinylated histone peptide H4 addition measured after 30 mins by AlphaScreen assay
pIC50: −log10 of the molar value.
# reported pIC50; entries follow
readout-type: pIC50

1) CN1CCc2c(sc3nc(-c4ccc(O)cc4)[nH]c(=O)c23)C1 :: 6.14
2) Cc1cc(-c2nc3sc4c(c3c(=O)[nH]2)CCCC4)cc(C)c1O :: 5.16
3) Cc1cc(-c2nc3sc4c(c3c(=O)[nH]2)CCC(C)C4)cc(C)c1O (stereo not given) :: 5.49
4) O=c1[nH]c(-c2ccc(O)cc2)nc2sc3c(c12)CCN(Cc1ccccc1)C3 :: 5.20
5) O=c1[nH]c(-c2ccc(O)cc2)nc2sc3c(c12)CCCCC3 :: 6.25
